Each entry below carries its reported acute toxicity p.o. (lethal dose).
Tested on: dd-strain male mice
PROTOCOL CONDITIONS: p.o., deaths 72 hours after administration
Where a name gives a salt, the structure may show the parent alone.

Example entries begin here.
>>> test_value("CCCN1Cc2cccnc2N(c2cccc(Br)c2)C1=O [drawing 134/CH2 CH2 CH3]")
"< 2000 mg/kg"
>>> test_value("O=C1N(CCO)Cc2cccnc2N1c1cccc(C(F)(F)F)c1 [drawing 135/CH2 CH2 OH]")
"> 2000 mg/kg"
>>> test_value("CC(C)N1Cc2cccnc2N(c2ccc(Cl)c(Cl)c2)C1=O")
"2000 mg/kg"

Q: Fill in the recorded acute toxicity p.o. (lethal dose) for this compound, with dd-strain male mice as test system: CC(C)N1CN(c2cccc([N+](=O)[O-])c2)c2ncccc2C1=O
Ans: < 2000 mg/kg

Q: Under dd-strain male mice: acute toxicity p.o. (lethal dose) value of COCN1CN(c2cccc([N+](=O)[O-])c2)c2ncccc2C1=O [drawing 123/CH2 OCH3 . HCl] ?
Ans: < 2000 mg/kg

---

Test system: dd-strain male mice
PROTOCOL CONDITIONS: p.o., deaths 72 hours after administration
PARAMETER: acute toxicity p.o. (lethal dose)

The cases that follow already have their acute toxicity p.o. (lethal dose) on record.
>>> test_value("CCN1CN(c2cccc([N+](=O)[O-])c2)c2ncccc2C1=O [drawing 123/C2 H5]")
"2000 mg/kg"
>>> test_value("CN1Cc2cccnc2N(c2cccc(C(F)(F)F)c2)C1=O [drawing 135/CH3]")
"< 500 mg/kg"
>>> test_value("CC(C)N1Cc2cccnc2N(c2cccc(C(F)(F)F)c2)C1=O")
"2000 mg/kg"

Kindly review the next molecule as well.
Q: Form field: reported acute toxicity p.o. (lethal dose) of O=C(O)CN1Cc2cccnc2N(c2cccc(C(F)(F)F)c2)C1=O [drawing 135/CH2 COOH]
Ans: > 2000 mg/kg
